biological target: Delta-type opioid receptor (Homo sapiens, UniProt P41143); assay: Agonist activity at human delta opioid receptor expressed in CHO cells co-expressing beta-arrestin2 assessed as beta-arrestin2 recruitment by measuring maximum efficacy measured after 90 mins by PathHunter assay; assay type: functional, cell-based; settings: filed as agonist
Sequence (P41143 whole entry): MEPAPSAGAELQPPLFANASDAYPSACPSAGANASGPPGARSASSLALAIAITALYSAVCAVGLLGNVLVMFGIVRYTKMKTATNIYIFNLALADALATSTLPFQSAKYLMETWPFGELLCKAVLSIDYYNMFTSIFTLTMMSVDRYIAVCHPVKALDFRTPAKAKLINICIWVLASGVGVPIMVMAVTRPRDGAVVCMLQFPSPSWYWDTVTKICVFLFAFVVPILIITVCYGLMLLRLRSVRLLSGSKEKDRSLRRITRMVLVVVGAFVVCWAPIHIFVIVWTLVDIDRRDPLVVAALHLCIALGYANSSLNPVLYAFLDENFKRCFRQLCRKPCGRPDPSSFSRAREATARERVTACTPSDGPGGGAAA
Lab note: anything with Emax below 70% is marked yes; values at 70% or higher are marked no.

> print(dat)
                               given.smiles                               test.system  qualitative.label
1  CC(C)C[C@H](NC(=O)[C@H](Cc1ccccc1)NC(=O)CNC(=O)C/C=C(\F)[C@@H](N)Cc1ccc(O)cc1)C(N)=O  Delta-type opioid receptor (Homo sapiens, UniProt P41143)                 no
2  CC(C)C[C@H](NC(=O)[C@H](Cc1ccccc1)NC(=O)CNC(=O)C/C=C(\F)[C@@H](N)Cc1ccc(O)cc1)C(=O)N(C)C  Delta-type opioid receptor (Homo sapiens, UniProt P41143)                yes
3  CC(C)C[C@H](NC(=O)[C@H](Cc1ccccc1)NC(=O)CNC(=O)C/C=C(\F)[C@@H](N)Cc1ccc(O)cc1)C(=O)O  Delta-type opioid receptor (Homo sapiens, UniProt P41143)                 no
4  CNC(=O)[C@H](CC(C)C)NC(=O)[C@H](Cc1ccccc1)NC(=O)CNC(=O)C/C=C(\F)[C@@H](N)Cc1ccc(O)cc1  Delta-type opioid receptor (Homo sapiens, UniProt P41143)                 no
